target or system: hMAO-B (Homo sapiens, UniProt P27338)
Construct: purchased Sigma Aldrich; host or cells: insect cells (BTI-TN-5B1-4), recombinant baculovirus
Sequence (P27338 whole entry): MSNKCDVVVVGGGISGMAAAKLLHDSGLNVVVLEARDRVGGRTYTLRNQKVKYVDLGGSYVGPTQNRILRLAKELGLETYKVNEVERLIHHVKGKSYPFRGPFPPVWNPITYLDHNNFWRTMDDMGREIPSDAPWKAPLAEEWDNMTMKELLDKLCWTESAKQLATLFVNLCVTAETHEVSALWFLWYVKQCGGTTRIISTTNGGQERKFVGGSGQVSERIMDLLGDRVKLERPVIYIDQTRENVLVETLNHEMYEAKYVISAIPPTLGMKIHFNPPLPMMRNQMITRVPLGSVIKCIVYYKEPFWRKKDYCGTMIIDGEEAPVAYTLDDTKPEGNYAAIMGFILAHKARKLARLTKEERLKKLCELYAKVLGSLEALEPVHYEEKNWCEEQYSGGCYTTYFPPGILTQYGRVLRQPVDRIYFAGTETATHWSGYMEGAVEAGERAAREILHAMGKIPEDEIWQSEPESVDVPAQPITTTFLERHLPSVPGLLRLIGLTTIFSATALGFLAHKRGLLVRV
procedure text: biochemical
stated conditions: read-out: % inhibition at 10 µM hMAO-B, kynuramine substrate
measured endpoint: inhibition at 10 µM
Give your result as the value with the unit written after it.

IN: Output inhibition at 10 µM of COc1cc([N+](=O)[O-])c(OC)cc1CCNCc1ccccc1OC [25N-NBOMe]
OUT: 25.5%

IN: Output inhibition at 10 µM of COc1cc([N+](=O)[O-])c(OC)cc1CCN
OUT: 18%

IN: Output inhibition at 10 µM of COc1cc(CCN)c(OC)cc1Br
OUT: 27.2%

IN: Output inhibition at 10 µM of COc1cc(CCN)cc(OC)c1OC.Cl
OUT: 21.2%

IN: Output inhibition at 10 µM of COc1cc(CCNCc2ccccc2OC)c(OC)cc1Br [25B-NBOMe]
OUT: 33.9%

IN: Output inhibition at 10 µM of COc1ccccc1CNCCc1cc(OC)c(OC)c(OC)c1
OUT: 89%

====

Give measured Kpcell for each item. Keep answers brief.
procedure text: CHI on Immobilized Artificial Membrane (IAM) HPLC, Kpcell
Type: physicochemical
stated conditions: partition between internal and external cellular media; estimated from experimental CHI(IAM)
Simply state the number, no unit and no words.

IN: Output Kpcell of COc1ccccc1CNCCc1cc(OC)c(OC)c(OC)c1 [Mescaline-NBOMe]
OUT: 2.71

IN: Output Kpcell of COc1cc(CCN)c(OC)cc1Br [2C-B, 4-Bromo-2,5-dimethoxy-β-phenethylamine]
OUT: 3.08

IN: Output Kpcell of COc1cc(CCNCc2ccccc2OC)c(OC)cc1Br [25B-NBOMe]
OUT: 9.08

IN: Output Kpcell of COc1cc([N+](=O)[O-])c(OC)cc1CCN [2C-N, 2,5-dimethoxy-4-nitrophenethylamine]
OUT: 0.94

IN: Output Kpcell of COc1cc([N+](=O)[O-])c(OC)cc1CCNCc1ccccc1OC [25N-NBOMe]
OUT: 5.05

====

procedure text: PAMPA-BBB permeability assay
Structures can show the parent of a compound that is named as a salt.
measured endpoint: −Log Pe ± SD
Simply state the number, no unit and no words.

IN: Output −Log Pe ± SD of CC(C)NCC(O)COc1cccc2ccccc12 (stereo not drawn) [Propanolol. HCl, reference compound]
OUT: 4.6

IN: Output −Log Pe ± SD of COc1ccccc1CNCCc1cc(OC)c(OC)c(OC)c1
OUT: 4.7

IN: Output −Log Pe ± SD of COc1cc([N+](=O)[O-])c(OC)cc1CCNCc1ccccc1OC [25N-NBOMe]
OUT: 4.6

IN: Output −Log Pe ± SD of CC(=O)[C@H]1CC[C@H]2[C@@H]3CCC4=CC(=O)CC[C@]4(C)[C@H]3CC[C@]12C [Progesterone, reference compound]
OUT: 4.5

IN: Output −Log Pe ± SD of C=C[C@H]1C[N@@]2CC[C@H]1C[C@@H]2[C@@H](O)c1ccnc2ccc(OC)cc12 [Quinidine. HCl, reference compound]
OUT: 4.8

IN: Output −Log Pe ± SD of COc1cc(CCNCc2ccccc2OC)c(OC)cc1Br [25B-NBOMe]
OUT: 4.4

Where do the numbers come from? From paper PMC10458253.
